# TGI per entry
- System: M14 melanoma
- experimentSummary: NCI tumour cell line growth inhibition, 48 h
Where a SMILES comes first, the peptide text is derived from it. [ ]: non-standard residue; d: D form. The star is where a group is joined. Phe(4-NO2) = N[CH](Cc1ccc([N+](=O)[O-])cc1)C(=O)O; Boc = CC(C)(C)OC(=O)*; OBn = c1ccc(CO*)cc1

{"compound": "Cc1cnc2c(C)ccc([N+](=O)[O-])c2c1NCCCN(C)C", "systemName": "M14 melanoma", "unitTag": "µM", "valueModifier": ">", "TGI": 100}
{"compound": "Cc1c(-c2c(C)c3ccccc3n2S(=O)(=O)c2ccccc2)n(S(=O)(=O)c2ccccc2)c2ccccc12", "systemName": "M14 melanoma", "unitTag": "µM", "valueModifier": ">", "TGI": 100}
{"compound": "CCCCCc1cc(OC(=O)c2c(O)cc(OC)cc2CCCCC)cc(O)c1C(=O)O", "systemName": "M14 melanoma", "unitTag": "µM", "valueModifier": "=", "TGI": 38.1}
{"compound": "O=C(NNc1nc(Cl)nc(N2CCN(C(c3ccccc3)c3ccccc3)CC2)n1)c1ccccc1", "systemName": "M14 melanoma", "unitTag": "µM", "valueModifier": "=", "TGI": 3.12}
{"compound": "COC(=O)CCC(NC(=O)OC(C)(C)C)C(=O)NC(Cc1ccc([N+](=O)[O-])cc1)C(=O)NCC(=O)OCc1ccccc1 (centres undefined) (Boc-Glu(OMe)-[Phe(4-NO2)]-Gly-OBn; configuration not given here)", "systemName": "M14 melanoma", "unitTag": "µM", "valueModifier": ">", "TGI": 100}
{"compound": "NCCC(N)C(=O)O (centres undefined)", "systemName": "M14 melanoma", "unitTag": "µM", "valueModifier": ">", "TGI": 100}
{"compound": "Cn1c(=O)nc2n(-c3ccc(Cl)cc3)c3ccc(Cl)cc3nc-2c1=O", "systemName": "M14 melanoma", "unitTag": "µM", "valueModifier": "=", "TGI": 21.8}
{"compound": "Cn1c(=O)c2c(nc(NCCCCl)n2CC(=O)O)n(C)c1=O", "systemName": "M14 melanoma", "unitTag": "µM", "valueModifier": ">", "TGI": 100}
{"compound": "O=[N+]([O-])c1ccc(C(c2c[nH]c3ccccc23)c2c[nH]c3ccccc23)cc1", "systemName": "M14 melanoma", "unitTag": "µM", "valueModifier": "=", "TGI": 33.2}
